# maps each entry to its % Inhibition
Test system: P. falciparum stage V gametocytes
Parameters: BacTiter-Glo ATP luminescence viability of purified stage V gametocytes in 384-well plates, per cent inhibition versus DMSO
reported conditions: 48 h, 5 µM; inhibitor
Hit rate of the full screen: of about 13,000 compounds, about 3,200 (25%) showed an effect of 50% or more. The list shows a part of the results.
Give a bare numeral; the unit % is implied.

Some entries whose results are on file:
compound string: Oc1ccc(CN2CCN(CCOC(c3ccccc3)c3ccccc3)CC2)cc1Cl
% Inhibition, %: -0.9629

compound string: O=C(NC1CCN(CCCc2ccccc2)CC1)c1ccc(-c2cccc(C(F)(F)F)c2)s1
% Inhibition, %: -38.84

compound string: O=C(CSc1ccccn1)Nc1c(F)cccc1F
% Inhibition, %: 16.99

compound string: O=C(O)CCCN1CCCC(=C(c2ccccc2)c2ccccc2)C1
% Inhibition, %: -38.14

compound string: CNC(=O)/C=C/c1cc(NC(=O)Nc2cc(C)nc3c(F)cccc23)ccc1OC
% Inhibition, %: -6.922

The molecule `Cc1[nH]c(C)c(-c2ccc(-c3ccc(F)cc3)nc2)c(=O)c1Br` showed % Inhibition equal to 64.89
